target: Caspase-2 (Homo sapiens (Human), UniProt P42575); experiment: Fluorometric enzymatic assay, active recombinant Caspase-2; format: biochemical; conditions: 10-point titration 0.1 nM to 3.3 μM, 30-minute incubation at 37° C.; read-out: IC50 values (μM) Caspase-2
Sequence (P42575 170-325): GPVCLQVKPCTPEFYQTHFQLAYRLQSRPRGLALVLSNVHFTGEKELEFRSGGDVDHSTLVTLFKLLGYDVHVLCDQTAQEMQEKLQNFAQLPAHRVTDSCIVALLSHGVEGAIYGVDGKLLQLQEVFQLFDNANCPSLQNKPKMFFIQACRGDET
Sequence (P42575 348-452): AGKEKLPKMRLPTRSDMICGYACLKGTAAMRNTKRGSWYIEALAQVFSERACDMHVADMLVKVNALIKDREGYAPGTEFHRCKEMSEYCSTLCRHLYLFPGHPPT
Each entry below lists one item and its recorded IC50 value.
measurement type: IC50

smi | measured result
CC(C)[C@H](NC(=O)[C@@H](NC(=O)[C@H](CC(=O)O)NC(=O)OCc1ccccc1)c1ccccc1)C(=O)N[C@H](/C=C(\Cl)S(C)(=O)=O)CC(=O)O | > 3.33 µM
CC(C)[C@H](NC(=O)[C@@H](NC(=O)[C@H](CC(=O)O)NC(=O)OCc1ccccc1)c1ccccc1)C(=O)N[C@H](/C=C/S(C)(=O)=O)CC(=O)O | > 3.33 µM
CC(C)[C@H](NC(=O)[C@H](Cc1cccc2ccccc12)NC(=O)[C@H](CC(=O)O)NC(=O)OCc1ccccc1)C(=O)N[C@H](/C=C/S(C)(=O)=O)CC(=O)O | > 3.33 µM

====

target: UniProtKB P42574; assay: Caspase-3 Inhibitor Drug Screening Kit, fluorometric (AFC liberation); type: biochemical; settings: read-out: IC50 caspase-3
Sequence (P42574 29-277): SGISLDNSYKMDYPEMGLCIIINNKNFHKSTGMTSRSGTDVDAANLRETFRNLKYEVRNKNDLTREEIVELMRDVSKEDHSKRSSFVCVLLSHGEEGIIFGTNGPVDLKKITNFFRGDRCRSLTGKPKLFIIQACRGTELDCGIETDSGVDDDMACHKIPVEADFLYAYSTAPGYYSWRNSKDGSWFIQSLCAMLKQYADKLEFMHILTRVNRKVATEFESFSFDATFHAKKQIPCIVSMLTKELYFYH
pIC50: −log10 of the molar value.
Each entry below lists one item and its recorded pIC50 value.

compound | pIC50
CC(C)[C@H](NC(=O)[C@@H](NC(=O)[C@H](CC(=O)O)NC(=O)OCc1ccccc1)c1ccccc1)C(=O)N[C@H](/C=C/S(C)(=O)=O)CC(=O)O [Compound 53, Z-Asp-Phg-Val-Aspmethyl vinyl sulfone] | 7.05 to 7.52
CC(C)[C@H](NC(=O)[C@H](Cc1ccc2ccccc2n1)NC(=O)[C@H](CC(=O)O)NC(=O)OCc1ccccc1)C(=O)N[C@H](/C=C(\Cl)S(C)(=O)=O)CC(=O)O [Compound 48] | 7.52 to 8.10
CC(C)[C@H](NC(=O)[C@H](CCC(=O)O)NC(=O)[C@H](CC(=O)O)NC(=O)OCc1ccccc1)C(=O)N[C@H](/C=C/S(C)(=O)=O)CC(=O)O [Compound 59, Z-Asp-Glu-Val-Aspmethyl vinyl sulfone] | 7.70
CC(C)[C@H](NC(=O)[C@@H](NC(=O)[C@H](CC(=O)O)NC(=O)OCc1ccccc1)C1Cc2ccccc2C1)C(=O)N[C@H](/C=C/S(C)(=O)=O)CC(=O)O [Compound 57] | 7.05 to 7.52
CC(C)[C@H](NC(=O)[C@H](Cc1c[nH]c2ccccc12)NC(=O)[C@H](CC(=O)O)NC(=O)OCc1ccccc1)C(=O)N[C@H](/C=C/S(C)(=O)=O)CC(=O)O [Compound 88, Z-Asp-Trp-Val-Aspmethyl vinyl sulfone] | 7.05 to 7.52

====

biological target: Caspase-9 (Homo sapiens (Human), UniProt P55211); assay: Caspase-9 Inhibitor Drug Screening Kit, fluorometric (AFC liberation); type: biochemical; settings: 30-minute incubation at 37° C.; approximations of the average values; read-out: Caspase enzymatic activity, IC50 (uM) Caspase 9
Sequence (P55211 whole entry): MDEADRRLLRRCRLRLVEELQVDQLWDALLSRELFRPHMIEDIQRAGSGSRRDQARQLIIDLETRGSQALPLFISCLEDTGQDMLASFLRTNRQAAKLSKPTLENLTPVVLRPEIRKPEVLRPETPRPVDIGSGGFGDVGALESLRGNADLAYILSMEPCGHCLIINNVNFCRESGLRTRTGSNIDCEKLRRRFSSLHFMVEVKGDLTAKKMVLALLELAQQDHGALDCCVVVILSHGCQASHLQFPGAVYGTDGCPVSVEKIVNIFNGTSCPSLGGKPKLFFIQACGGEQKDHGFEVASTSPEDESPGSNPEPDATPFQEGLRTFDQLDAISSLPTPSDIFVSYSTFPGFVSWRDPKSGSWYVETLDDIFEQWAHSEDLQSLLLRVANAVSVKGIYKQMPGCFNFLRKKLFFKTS
measurement type: IC50

smi | measured result
CC(C)(C)OC(=O)C[C@@H](/C=C/S(=O)(=O)c1ccccc1)NC(=O)OC(C)(C)C | > 3.33 µM
CC(C)[C@H](NC(=O)[C@@H](NC(=O)[C@H](CC(=O)O)NC(=O)OCc1ccccc1)C1Cc2ccccc2C1)C(=O)N[C@H](/C=C/S(C)(=O)=O)CC(=O)O | > 3.33 µM
CC(C)[C@H](NC(=O)[C@@H](NC(=O)[C@H](CC(=O)O)NC(=O)OCc1ccccc1)c1ccccc1)C(=O)N[C@H](/C=C/S(C)(=O)=O)CC(=O)O | > 10 µM

Entry source: patent US9045524B2
